# testedSystem: human full-length MKNK1 (Homo sapiens, UniProt Q9BUB5, T385D)
# Construct: GST (N); purchased Carna Biosciences 02-145; host or cells: insect cells (baculovirus expression system)
# Sequence (Q9BUB5 1-424 isoform Q9BUB5-2 T344D): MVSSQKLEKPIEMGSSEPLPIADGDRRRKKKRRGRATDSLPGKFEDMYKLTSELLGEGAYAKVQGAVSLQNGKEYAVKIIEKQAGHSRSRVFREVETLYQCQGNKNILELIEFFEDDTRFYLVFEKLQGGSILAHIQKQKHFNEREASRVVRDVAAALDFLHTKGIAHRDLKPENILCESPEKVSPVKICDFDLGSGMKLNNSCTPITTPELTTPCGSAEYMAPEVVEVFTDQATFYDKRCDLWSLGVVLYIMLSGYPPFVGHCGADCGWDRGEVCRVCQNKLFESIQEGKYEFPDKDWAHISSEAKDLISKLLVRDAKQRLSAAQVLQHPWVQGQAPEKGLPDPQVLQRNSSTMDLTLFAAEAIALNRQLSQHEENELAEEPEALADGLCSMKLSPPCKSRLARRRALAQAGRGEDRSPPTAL
# testMethodNotes: MKNK1 kinase high ATP assay (TR-FRET)
# Type: biochemical
# testContext: 2 mM ATP, after preincubation with MKNK1; read-out: MKNK1 IC50 (MKNK1 high ATP)
parameter: IC50

> print(dat)
                                   compound  parameter  recordedresult
1  COCCNC(=O)C1CCc2c(sc3ncnc(Nc4ccc5[nH]ncc5c4)c23)C1 (stereo not shown)       IC50           14 nM
2  O=C(C1CCc2c(sc3ncnc(Nc4ccc5[nH]ncc5c4)c23)C1)N1CCC(O)(C(F)(F)F)CC1 (racemic)       IC50           12 nM

query: Find the measured IC50: item COc1cc2[nH]ncc2cc1Nc1ncnc2sc3c(c12)CCC(C(=O)N1CC2(CCS2(=O)=O)C1)C3 (racemic) , target or system human full-length MKNK1 (Homo sapiens, UniProt Q9BUB5, T385D).
result: 2.2 nM

query: Continue with O=C(C1CCc2c(sc3ncnc(Nc4ccc5[nH]ncc5c4)c23)C1)N1CCCC1CO (racemic)
result: 40.6 nM

query: Continue with CN(C)C(=O)C1CCc2c(sc3ncnc(Nc4cc5cn[nH]c5cc4OCCCN=[N+]=[N-])c23)C1 (racemic)
result: 3.9 nM

query: Continue with CN(C)C(=O)CN1CCN(C(=O)C2CCc3c(sc4ncnc(Nc5ccc6[nH]ncc6c5)c34)C2)CC1 (racemic)
result: 19.5 nM

query: Continue with O=C(Nc1cc[nH]n1)C1CCc2c(sc3ncnc(Nc4ccc5[nH]ncc5c4)c23)C1 (racemic)
result: 24.1 nM

====

# testedSystem: human full-length MKNK1 (Homo sapiens, UniProt Q9BUB5, T385D)
# Construct: GST (N); purchased Carna Biosciences 02-145; host or cells: insect cells (baculovirus expression system)
# testMethodNotes: MKNK1 kinase high ATP assay (TR-FRET)
# Format: biochemical
# testContext: 2 mM ATP, after preincubation with MKNK1; read-out: MKNK1 IC50 (MKNK1 high ATP)
parameter: pIC50
Value format note: pIC50 is -log10 of concentration (mol/L); just state the number.

Example results:
> print(dat)
                                   compound  parameter  recordedresult
1  CCOc1cc2[nH]ncc2cc1Nc1ncnc2sc3c(c12)CCC(C(=O)N(CC)CCC#N)C3 (racemic) [Example 242]      pIC50            9.52
2  O=C(Nc1cncnc1)C1CCc2c(sc3ncnc(Nc4ccc5[nH]ncc5c4)c23)C1 (racemic) [Example 150]      pIC50            7.51
3  CCNC(=O)C1CCc2c(sc3ncnc(Nc4cc5cn[nH]c5cc4OC)c23)C1 (centres unmarked) [Example 58]      pIC50            9.15
4  COc1cc2[nH]ncc2cc1Nc1ncnc2sc3c(c12)CCC(C(=O)N1CC(O)C1)C3 (racemic) [Example 272]      pIC50            9.22
5  O=C(NCCN1CCNC1=O)C1CCc2c(sc3ncnc(Nc4ccc5[nH]ncc5c4)c23)C1 (racemic) [Example 125]      pIC50            7.98

query: pIC50 for Cc1cnc(CNC(=O)C2CCc3c(sc4ncnc(Nc5ccc6[nH]ncc6c5)c34)C2)cn1 (racemic) [Example 148] ?
result: 8.09

query: Continue with CCNC(=O)C1CCc2c(sc3ncnc(Nc4ccc5[nH]ncc5c4)c23)C1 (centres unmarked) [Example 46]
result: 8.00

query: Continue with CCOc1cc2[nH]ncc2cc1Nc1ncnc2sc3c(c12)CCC(C(=O)N(C)CCOC)C3 (racemic) [Example 245]
result: 9.15

query: Continue with CC(C)Oc1cc2[nH]ncc2cc1Nc1ncnc2sc3c(c12)CCC(C(=O)N1CC2(COC2)C1)C3 (racemic) [Example 206]
result: 9.00

query: Continue with CC(=O)N1CCN(CCNC(=O)C2CCc3c(sc4ncnc(Nc5ccc6[nH]ncc6c5)c34)C2)CC1 (racemic) [Example 168]
result: 7.76

query: Continue with O=C(C1CCc2c(sc3ncnc(Nc4ccc5[nH]ncc5c4)c23)C1)N1CCN(Cc2ccccn2)CC1 (racemic) [Example 154]
result: 7.54

query: Continue with CCN(C)C(=O)C1CCc2c(sc3ncnc(Nc4cc5cn[nH]c5cc4OC(C)C)c23)C1 (racemic) [Example 217]
result: 9.00

query: Continue with O=C(Nc1ccncc1)C1CCc2c(sc3ncnc(Nc4ccc5[nH]ncc5c4)c23)C1 (racemic) [Example 94]
result: 7.63

query: Continue with CC(C)NC(=O)C1CCc2c(sc3ncnc(Nc4cc5cn[nH]c5cc4F)c23)C1 (racemic) [Example 63]
result: 7.99

query: Continue with COCCN(CCOC)C(=O)C1CCc2c(sc3ncnc(Nc4ccc5[nH]ncc5c4)c23)C1 (racemic) [Example 107]
result: 8.09

query: Continue with CC(=O)N[C@@H]1CCN(C(=O)C2CCc3c(sc4ncnc(Nc5ccc6[nH]ncc6c5)c34)C2)C1 (mixture of isomers) [Example 124]
result: 8.10

query: Continue with O=C(C1CCc2c(sc3ncnc(Nc4ccc5[nH]ncc5c4)c23)C1)N1CCN(Cc2ccncc2)CC1 (racemic) [Example 142]
result: 7.65

query: Continue with O=C(Nc1ccccc1)C1CCc2c(sc3ncnc(Nc4ccc5[nH]ncc5c4)c23)C1 (centres unmarked) [Example 5]
result: 8.05

query: Continue with CCN(CC)CCN(C)C(=O)C1CCc2c(sc3ncnc(Nc4ccc5[nH]ncc5c4)c23)C1 (racemic) [Example 95]
result: 7.69

query: Continue with O=C(NC1(c2ccccc2)CC1)C1CCc2c(sc3ncnc(Nc4ccc5[nH]ncc5c4)c23)C1 (racemic) [Example 147]
result: 8.43

query: Continue with CN(C)CCCN(C)C(=O)C1CCc2c(sc3ncnc(Nc4ccc5[nH]ncc5c4)c23)C1 (racemic) [Example 96]
result: 7.79

query: Continue with CC(C)Oc1cc2[nH]ncc2cc1Nc1ncnc2sc3c(c12)CCC(C(=O)N1CCC1)C3 (racemic) [Example 219]
result: 9.30

====

# testedSystem: human full-length MKNK1 (Homo sapiens, UniProt Q9BUB5, T385D)
# Construct: GST (N); purchased Carna Biosciences 02-145; host or cells: insect cells (baculovirus expression system)
# testMethodNotes: MKNK1 kinase high ATP assay (TR-FRET)
# Type: biochemical
# testContext: 2 mM ATP, after preincubation with MKNK1; read-out: MKNK1 IC50 (MKNK1 high ATP)
pIC50: −log10 of the molar value.
Assign 1 to entries whose pIC50 meets or exceeds 9; assign -1 to the rest.

> print(dat)
                                   compound  assignedclass
1  CCOc1cc2[nH]ncc2cc1Nc1ncnc2sc3c(c12)CCC(C(=O)N(C)CCO)C3 (racemic)              1
2  CN(C)C(=O)C1CCc2c(sc3ncnc(Nc4cc5cn[nH]c5cc4OCCCCl)c23)C1 (racemic)             -1
3  CN(Cc1ccn(C)n1)C(=O)C1CCc2c(sc3ncnc(Nc4ccc5[nH]ncc5c4)c23)C1 (racemic)             -1
4  Cc1ccccc1NC(=O)C1CCc2c(sc3ncnc(Nc4ccc5[nH]ncc5c4)c23)C1 (stereo not drawn) [Example 15]             -1
5  COc1cc2[nH]ncc2cc1Nc1ncnc2sc3c(c12)CCC(C(=O)N1[C@H](C)CC[C@H]1C)C3 (mixture of isomers)              1

In the following, a different compound is considered.
query: Could you please find out whether O=C(C1CCc2c(sc3ncnc(Nc4ccc5[nH]ncc5c4)c23)C1)N1CCN(c2ccncc2)CC1 (racemic) has pIC50 that meets 9 or exceeds it?
result: -1

====

# testedSystem: human full-length MKNK1 (Homo sapiens, UniProt Q9BUB5, T385D)
# Construct: GST (N); purchased Carna Biosciences 02-145; host or cells: insect cells (baculovirus expression system)
# testMethodNotes: MKNK1 kinase high ATP assay (TR-FRET)
# Format: biochemical
# testContext: 2 mM ATP, after preincubation with MKNK1; read-out: MKNK1 IC50 (MKNK1 high ATP)
parameter: IC50 (nM)
The answer is to be given in nM; state only the numeric part.

> print(dat)
                                   molecule  recordedresult
1  O=C(NCCc1ccccc1)C1CCc2c(sc3ncnc(Nc4ccc5[nH]ncc5c4)c23)C1 (centres unmarked)               6
2  COc1cc2[nH]ncc2cc1Nc1ncnc2sc3c(c12)CCC(C(=O)N(C)CCO)C3 (racemic)             0.4
3  CCOc1cc2[nH]ncc2cc1Nc1ncnc2sc3c(c12)CCC(C(=O)N1CCCC1)C3 (racemic)             0.2
4  O=C(O)C1CCc2c(sc3ncnc(Nc4cc5cn[nH]c5cc4F)c23)C1 (centres unmarked)              37
5  O=C(C1CCc2c(sc3ncnc(Nc4ccc5[nH]ncc5c4)c23)C1)N1CCN(Cc2cccnc2)CC1 (racemic)            18.3
6  O=C(C1CCc2c(sc3ncnc(Nc4ccc5[nH]ncc5c4)c23)C1)N1CCCC1 (centres unmarked)              15
7  CCOc1cc2[nH]ncc2cc1Nc1ncnc2sc3c(c12)CCC(C(=O)N(C)CC(O)CO)C3 (racemic)             0.6

query: IC50 for Cc1ccccc1NC(=O)C1CCc2c(sc3ncnc(Nc4ccc5[nH]ncc5c4)c23)C1 (racemic) [Example 75] ?
result: 2.7
